B1: CAMK2B (parent)
chain: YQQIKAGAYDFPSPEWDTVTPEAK

Variants of: B1
Assay: protein stability index of a GFP-peptide fusion (GPS, HEK-293T) (PSI 1-6); higher = more stable;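 further: lentivirally expressed fusions sorted by FACS into six bins by GFP to DsRed ratio, PSI derived from sequencing read proportions per bin multiplied by bin number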
Settings: c terminus: a fixed tail appended
Below: a set of entries, each annotated with reported protein stability index.
Keep the answer to the number alone.

Known results for variants:
1) YSQIKAGAYDFPSPEWDTVTPEAK	4.34
2) YQQIKAGAYDFPSPEWDTVPPEAK	3.18
3) YQQIKAPAYDFPSPEWDTVTPEAK	3.86
4) YQQIKANAYDFPSPEWDTVTPEAK	3.77
5) YQQIKAGAYDFPSPEWDTVTIEAK	3

[ask] Any idea what protein stability index was measured for YQQIKAGAYDFPSPEWGTVTPEAK ?
[reply] 2.69

[ask] Param item: YQQIKTGAYDFPSPEWDTVTPEAK
[reply] 3.62

[ask] Param item: YQQIKAGAYDFPSIEWDTVTPEAK
[reply] 3.4

[ask] Param item: YQQEKAGAYDFPSPEWDTVTPEAK
[reply] 4.26

[ask] Param item: YQQIKAGPYDFPSPEWDTVTPEAK
[reply] 3.02

[ask] Param item: YLQIKAGAYDFPSPEWDTVTPEAK
[reply] 3.35

[ask] Param item: YQQIKAGAYDVPSPEWDTVTPEAK
[reply] 4.15

[ask] Param item: YQQIKAGAYDFPSPEWDTVNPEAK
[reply] 3.91

[ask] Param item: YQQIKAGAYDFPLPEWDTVTPEAK
[reply] 3.29

[ask] Param item: YQQIKAGAYVFPSPEWDTVTPEAK
[reply] 2.41

[ask] Param item: YQQIKAGAYDFPIPEWDTVTPEAK
[reply] 3.37

[ask] Param item: YQQIKAGAYDFPSPEWDTVQPEAK
[reply] 3.34

[ask] Param item: YQQIKAGAYDFPSPEWDTVTPEAD
[reply] 4.11

[ask] Param item: YQQIKAGAYDFPSPEWDTVTPEAT
[reply] 3.47

[ask] Param item: YQQIKAGAYDFPSPEWDTVTPEAH
[reply] 3.6

[ask] Param item: YQQIKAGAYDFPSPEWDTVTPTAK
[reply] 3.05

[ask] Param item: YQQIKAGAYDFPSPEWDTTTPEAK
[reply] 3.96

[ask] Param item: YQQIKAGYYDFPSPEWDTVTPEAK
[reply] 3.31

[ask] Param item: MQQIKAGAYDFPSPEWDTVTPEAK
[reply] 5.04
